test: Recovery of injected probes in urine of golden spiny mice; type: in vivo; conditions: Acomys russatus (golden spiny mouse), ip; A. russatus, intraperitoneal injection, cumulative urine recovery, mean ± SEM; read-out: Recovery of injected probe in urine
measurementType: dose excreted (%)
Report the value in % with no unit label.

Incoming: Query (compound): CO[C@@H]([C@H](O)[C@H](O)CO)[C@@H](O)C=O [3-O-methyl-D-glucose] ; field requested: dose excreted
Outgoing: 93

---

assay: Recovery of injected probes in urine of common spiny mice; assay type: in vivo; settings: Acomys cahirinus (common spiny mouse), ip; A. cahirinus, intraperitoneal injection, cumulative urine recovery, mean ± SEM; read-out: Recovery of injected probe in urine
measurementType: dose excreted

Incoming: Query (molecule): `CO[C@@H]([C@H](O)[C@H](O)CO)[C@@H](O)C=O` ; field requested: dose excreted
Outgoing: 100%
